Kindly supply the reported log10 of solubility kinetic values for the records listed here.
- Test parameters: buffer; pH 7.4; 200.0 µM
For clarity, the numbers are log10 values of solubility kinetic expressed in µg/mL.

CCOP(=O)(OCC)C(NC(=O)NC)C(N)=O (centres undefined)    1.48
CCOc1ccc(CN(C)CC(=O)NCc2ccccc2)cc1    1.54
NC(=O)c1c(NC(=O)c2ccccc2F)sc2c1CCCC2    0.48
Cc1ccccc1NC(=O)c1ccccc1N(C)S(=O)(=O)c1ccccc1    1.67

Answer for every listed entry: what is its log10 of solubility kinetic? The entries follow.
1. CCN(CC)S(=O)(=O)c1ccc(O)c(C(=O)OCC(=O)NC23CC4CC(CC(C4)C2)C3)c1
2. O=C(CSC(=S)N1CCOCC1)Nc1nccs1

### Response
1. 1.41
2. 0.90
